The origin of these recorded values is patent US5965560A.

Exercise: for every item that follows, state its recorded pKi.
Structures can show the parent of a compound that is named as a salt.
Would you please state pKi, meaning minus log10 of the concentration in mol/L, as a bare number?

human D3 receptor (DA D3) (Homo sapiens, UniProt P35462) / pKi / COc1cc(CN2CCN(c3ccc(C)cc3)CC2)cc(OC)c1OC [Example 8, monohydrochloride] : value?
5.17

human D3 receptor (DA D3) (Homo sapiens, UniProt P35462) / pKi / COc1ccc(OC)c(CN2CCN(c3cccc(C)c3Cl)CC2)c1 [Example 28, monohydrochloride] : value?
6.14

human D3 receptor (DA D3) (Homo sapiens, UniProt P35462) / pKi / COc1cccc(CN2CCN(c3cccc(C)c3Cl)CC2)c1OC [Example 26, monohydrochloride] : value?
5.58

human D3 receptor (DA D3) (Homo sapiens, UniProt P35462) / pKi / COc1cc(CN2CCN(c3ccc(C)c(Cl)c3)CC2)cc(OC)c1OC [Example 20, monohydrochloride] : value?
5.69

human D3 receptor (DA D3) (Homo sapiens, UniProt P35462) / pKi / COc1cc(CN2CCN(c3cc(Cl)ccc3C)CC2)cc(OC)c1OC [Example 21, monohydrochloride] : value?
5.45

human D3 receptor (DA D3) (Homo sapiens, UniProt P35462) / pKi / COc1ccc(CN2CCN(c3cccc(C)c3Cl)CC2)cc1OC [Example 29, monohydrochloride] : value?
5.92

human D3 receptor (DA D3) (Homo sapiens, UniProt P35462) / pKi / COc1ccc(CN2CCN(c3cccc(C)c3Cl)CC2)c(OC)c1 [Example 27, monohydrochloride] : value?
6.39

human D3 receptor (DA D3) (Homo sapiens, UniProt P35462) / pKi / COc1cc(CN2CCN(c3cccc(C)c3)CC2)cc(OC)c1OC [Example 7, monohydrochloride] : value?
5.56

human D3 receptor (DA D3) (Homo sapiens, UniProt P35462) / pKi / COc1cc(CN2CCN(c3cccc(Cl)c3C)CC2)cc(OC)c1OC [Example 19, monohydrochloride] : value?
5.67
